tested on: Escherichia coli; assay: Antimicrobial activity against Escherichia coli MTCC 739 assessed as diameter of growth inhibition zone after 24 hr; type: functional; also: test concentration or dose not given here
Would you mind telling me the reported diameter of the inhibition zone (DIZ) of each entry?
Give bare numbers, in mm.

compound=COc1ccc(/C=C/C(=O)c2ccc(Nc3cc(=O)oc4ccccc34)cc2)cc1 subject_of_test="Escherichia coli" experimental_readout="diameter of the inhibition zone (DIZ)" result_unit=mm test_value=18
compound=N#Cc1c(-c2ccccc2Br)cc(-c2ccc(Nc3cc(=O)oc4ccccc34)cc2)nc1N subject_of_test="Escherichia coli" experimental_readout="diameter of the inhibition zone (DIZ)" result_unit=mm test_value=18
compound="COc1ccc(C2CC(c3ccc(Nc4cc(=O)oc5ccccc45)cc3)=NN2C(C)=O)cc1OC (configuration not stated)" subject_of_test="Escherichia coli" experimental_readout="diameter of the inhibition zone (DIZ)" result_unit=mm test_value=21
compound=COc1ccc(/C=C/C(=O)c2ccc(Nc3cc(=O)oc4ccccc34)cc2)cc1OC subject_of_test="Escherichia coli" experimental_readout="diameter of the inhibition zone (DIZ)" result_unit=mm test_value=22
compound="CC(=O)N1N=C(c2ccc(Nc3cc(=O)oc4ccccc34)cc2)CC1c1ccc(O)cc1O (configuration not stated)" subject_of_test="Escherichia coli" experimental_readout="diameter of the inhibition zone (DIZ)" result_unit=mm test_value=20

Req: What does the data say about its diameter of the inhibition zone (DIZ)? Entry: `Nc1nc(-c2ccc(Cl)cc2)cc(-c2ccc(Nc3cc(=O)oc4ccccc34)cc2)n1`
Resp: 18

###

system: Aspergillus niger; assay: Antimicrobial activity against Aspergillus niger MTCC 282 assessed as diameter of growth inhibition zone after 48 hr; assay type: functional; also: test concentration or dose not given here
Would you mind telling me the reported diameter of the inhibition zone (DIZ) of each entry?
Answers are plain numbers, in mm.

// below: answered compounds
compound=Cc1ccc(-c2cc(-c3ccc(Nc4cc(=O)oc5ccccc45)cc3)nc(N)n2)cc1 test_value=21
compound=O=C(/C=C/c1ccc([N+](=O)[O-])cc1)c1ccc(Nc2cc(=O)oc3ccccc23)cc1 test_value=11

# batch size: 3; output diameter of the inhibition zone (DIZ) per entry
1. CC(=O)N1N=C(c2ccc(Nc3cc(=O)oc4ccccc34)cc2)CC1c1ccc(O)cc1O (stereo not given)
2. Cc1ccc(/C=C/C(=O)c2ccc(Nc3cc(=O)oc4ccccc34)cc2)cc1
3. O=C(/C=C/c1ccc(O)cc1O)c1ccc(Nc2cc(=O)oc3ccccc23)cc1

Resp:
[21, 14, 19]

###

test system: Candida albicans; assay: Antimicrobial activity against Candida albicans MTCC 183 assessed as growth inhibition after 48 hr by agar streak dilution method; type: functional; settings: MTCC 183, 48 h
Would you mind telling me the reported MIC of each entry?
Answers are plain numbers, in µg/mL.

molecule=Nc1nc(-c2ccc(Nc3cc(=O)oc4ccccc34)cc2)cc(-c2ccc(Cl)cc2Cl)n1 experimental_readout=MIC result_unit=µg/mL test_value=25
molecule=O=C(/C=C/c1ccc(O)cc1O)c1ccc(Nc2cc(=O)oc3ccccc23)cc1 experimental_readout=MIC result_unit=µg/mL test_value=100
molecule=Nc1nc(-c2ccc(Nc3cc(=O)oc4ccccc34)cc2)cc(-c2ccc([N+](=O)[O-])cc2)n1 experimental_readout=MIC result_unit=µg/mL test_value=50
molecule="CC(=O)N1N=C(c2ccc(Nc3cc(=O)oc4ccccc34)cc2)CC1c1ccc([N+](=O)[O-])cc1 (configuration not stated)" experimental_readout=MIC result_unit=µg/mL test_value=100
molecule="COc1ccc(C2CC(c3ccc(Nc4cc(=O)oc5ccccc45)cc3)=NN2C(C)=O)cc1 (configuration not stated)" experimental_readout=MIC result_unit=µg/mL test_value=50
molecule=COc1ccc(-c2cc(-c3ccc(Nc4cc(=O)oc5ccccc45)cc3)nc(N)n2)cc1 experimental_readout=MIC result_unit=µg/mL test_value=25

Kindly consider the entry below.
Req: What does the data say about its MIC? Entry: `Nc1nc(-c2ccccc2)cc(-c2ccc(Nc3cc(=O)oc4ccccc34)cc2)n1`
Resp: 50
